Biological target: T1, SPO11 Y138F;TOP6BL (Mus musculus;Mus musculus, UniProt Q9WTK8;J3QMY9 1-396;1-579, Y138F|)
T1 sequence 1: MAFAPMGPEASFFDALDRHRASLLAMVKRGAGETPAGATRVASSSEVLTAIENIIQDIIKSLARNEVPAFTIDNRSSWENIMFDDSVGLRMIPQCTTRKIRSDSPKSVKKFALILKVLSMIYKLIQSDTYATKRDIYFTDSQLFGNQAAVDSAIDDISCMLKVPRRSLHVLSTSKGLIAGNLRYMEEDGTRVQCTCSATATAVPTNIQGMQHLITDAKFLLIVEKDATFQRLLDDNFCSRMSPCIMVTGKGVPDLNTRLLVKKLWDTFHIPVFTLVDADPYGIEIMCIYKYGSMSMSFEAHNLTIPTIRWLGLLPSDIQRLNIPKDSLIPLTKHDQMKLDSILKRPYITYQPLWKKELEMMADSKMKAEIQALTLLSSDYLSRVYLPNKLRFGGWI
T1 sequence 2: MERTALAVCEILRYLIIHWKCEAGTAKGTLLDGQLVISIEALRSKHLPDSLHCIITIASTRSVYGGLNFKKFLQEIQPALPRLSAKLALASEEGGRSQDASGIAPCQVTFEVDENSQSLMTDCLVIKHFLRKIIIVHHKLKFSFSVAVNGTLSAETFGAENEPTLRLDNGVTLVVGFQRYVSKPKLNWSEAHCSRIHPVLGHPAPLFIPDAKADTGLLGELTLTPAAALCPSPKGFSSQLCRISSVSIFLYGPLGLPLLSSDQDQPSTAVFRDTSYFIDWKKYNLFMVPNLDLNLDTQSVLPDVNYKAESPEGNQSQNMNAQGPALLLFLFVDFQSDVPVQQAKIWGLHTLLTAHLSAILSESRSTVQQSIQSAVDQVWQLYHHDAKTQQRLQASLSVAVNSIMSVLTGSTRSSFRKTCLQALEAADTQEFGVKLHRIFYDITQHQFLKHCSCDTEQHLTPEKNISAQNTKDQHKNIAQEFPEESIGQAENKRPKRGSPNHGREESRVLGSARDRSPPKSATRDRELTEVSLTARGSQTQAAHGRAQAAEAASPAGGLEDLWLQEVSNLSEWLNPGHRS
Experiment: EMSA; 5 mM Mg2+; apparent Kd; Hairpin EMSA: 25 mM Tris-HCl pH 7.5, 100 mM NaCl, 5 mM MgCl2, 7.5% glycerol, 2 mM DTT, 1 mg/ml BSA, 0.1 nM DNA, 30 min 30 C; cleavage-oligo EMSA: 25 mM HEPES-NaOH pH 7.5, 50 mM NaCl, 5 mM MgCl2, 7.5% glycerol, 1 mg/ml BSA, 2 mM DTT, 4 C
Settings: protein: recombinant;recombinant, tags: N-terminal Flag-TEV;untagged, copies: 1;1, label: 5'-32P, 5' overhang 2 nt
Quantity Kind: pKd
The meaning of pKd here: minus log10 of the concentration in molar units.

Using the record for TAGCAATGTAATCGTCTATGACGTTAACGTCATAGACGATTACATTGC (structured_DNA) [25 bp hairpin, 2-nt 5' overhang] , report its pKd.
9.24
